- measurement.setup: buffer; pH 7.4; 200.0 µM
measured.metric: solubility kinetic (µg/mL)

O=C(Nc1ccccc1[N+](=O)[O-])C1COc2ccccc2O1 (stereo not given) ... 1
CN(C)S(=O)(=O)NCCNc1ccc(C(F)(F)F)cc1[N+](=O)[O-] ... 18.2
Cc1cc(NS(=O)(=O)c2cccc([N+](=O)[O-])c2)no1 ... 32.5
Cc1ccccc1NC(=O)c1ccc2nccnc2c1 ... 37.3
COc1ccc(NC(=O)CN2CCCC2)cc1 ... 34
C=CCN1C(=S)CC(c2ccccc2)=Nc2ccccc21 ... 3.3
COc1cc(OC)cc(C2=NC3(CCC(C)CC3)NC2=S)c1 (stereo not given) ... 2.2
COc1ccc(NC(=O)CSc2ccc3c(c2)OCCO3)cc1 ... 46.1
O=C(CCc1ccccc1)NC1CCCc2ccccc21 (stereo not given) ... 19.2
NCCc1c[nH]c2ccc(OCc3ccccc3)cc12 ... 7.8

###

- measurement.setup: buffer; pH 7.4; 200.0 µM
measured.metric: log10 solubility kinetic (log10 of the value in µg/mL)

CS(=O)(=O)c1ccc2nc(NC(=O)c3ccccc3)sc2c1 ... 0.18
COc1ccccc1NC(=O)N1CCN(CCc2ccccc2)CC1 ... 1.71
Cc1ccc(C(=O)NCC(=O)NC2CCC(C)CC2)s1 (stereo not drawn) ... 0.88
O=c1[nH]c(/C=C/c2ccc([N+](=O)[O-])cc2)c([N+](=O)[O-])c(=O)[nH]1 ... 1.40
COc1ccc(OC)c(C(C)NC(=O)C(C)Cc2ccccc2)c1 (stereo not drawn) ... 1.66
CCC(C)NC(=O)c1ccc(CSCc2ccc(Cl)cc2)o1 (stereo not drawn) ... 1.35
Cn1c(/C=C/c2ccccc2[N+](=O)[O-])nc2ccccc2c1=O ... -0.22
Cc1cc(C)c(S(=O)(=O)c2ccc(Cl)cc2)c(=O)[nH]1 ... 1.30
COc1ccc2oc(C(=O)N3CCN(c4ncccn4)CC3)c(C)c2c1 ... 0.68
Cc1noc(NS(=O)(=O)c2ccc(NC(=O)c3cccc(S(=O)(=O)Nc4ccccc4F)c3)cc2)c1C ... 1.85
NC(=O)c1ccccc1OCC(=O)Nc1ccc2c(c1)CCC2 ... 0.98
CCN(CC)c1ccc(/C=C2\SC(=O)N(C(C)C)C2=O)o1 ... 0.61
O=C(CCCc1cccs1)NCCc1c[nH]c2ccccc12 ... 1.65
CC(C)(C)NC(=S)Nc1cccc(C(F)(F)F)c1 ... 1.23
Cc1noc(C)c1COc1ccc(C(=O)Nc2ccccc2)cc1 ... -0.10
O=C(NC1CCN(C(=O)NCc2ccccc2)CC1)c1ccc(F)cc1 ... 0.97
O=C(CNC(=O)Cc1ccc(Cl)cc1)NCc1ccco1 ... 1.42
O=C(Nc1ncccn1)c1cc(-c2ccc(F)cc2)nc2ccccc12 ... 1.65
Cl.c1ccc(SCCOCCN2CCOCC2)cc1 ... 1.64
NC(=O)c1cc([N+](=O)[O-])cc2c1C=Cc1ccccc1O2 ... 0.66
CC(C)(C)C(=O)OC/C(N)=N/OC(=O)c1ccc(Cl)cc1 ... 0.20
CC(C)N1CCN(Cc2c[nH]c3ccccc23)CC1CCO (stereo not drawn) ... 1.52
Nc1ncnc(Oc2cccc3cccnc23)c1[N+](=O)[O-] ... 1.53
Cc1cc(C(=O)Nc2ccccc2N2CCOCC2)c(C)o1 ... 1.01
CCc1nc2ccccc2c(C(=O)OCC(=O)N(C)Cc2ccccc2)c1C ... 0.69
Cc1ccc(C(=O)Nc2ccc(S(=O)(=O)N3CCOCC3)cc2)cc1Br ... -0.30
O=C(COC(=O)/C=C/c1ccc([N+](=O)[O-])cc1)NCc1ccco1 ... 0.18
N#Cc1cc2c(nc1S(=O)(=O)Cc1ccccc1)CCCC2 ... 1.49
Cc1cnc(NC(=O)C2CC=CCC2)s1 (stereo not drawn) ... 1.38

###

# Lookup of reported solubility kinetic keyed by entry
- measurement.setup: buffer; pH 7.4; 200.0 µM
measured.metric: solubility kinetic (µg/mL)

CCc1sc(C(=O)Nc2ccc3nc(C)sc3c2)cc1C ... 1.6
CCOc1ccc(NC(=O)COC(=O)CC2CC3CCC2C3)cc1 (stereo unspecified) ... 16.9
CCOC(=O)N1CCN(CC(=O)Nc2cc(OC)c(OC)cc2C#N)CC1 ... 16.3

###

- measurement.setup: buffer; pH 7.4; 200.0 µM
Output YES for solubility kinetic not less than 30 µg/mL; output NO otherwise.

COCc1cc(=O)[nH]c(N2CCN(C(=O)c3ccco3)CC2)n1 ... YES
O=C(CN1CCOCC1)Nc1cc([N+](=O)[O-])ccc1Cl ... NO
O=C(NCC(=O)N1CCCC(C(F)(F)F)C1)c1ccco1 (stereo not drawn) ... YES
COc1cccc(OC)c1/C=C/C(=O)NC1CCCCC1 ... NO
CC1CN(S(=O)(=O)c2cc(C(=O)N3CCCCC3C)ccc2Cl)CC(C)O1 (stereo not drawn) ... YES
CC(C)C(NC(=O)c1ccc(F)cc1)C(=O)NCC1CCCO1 (stereo not drawn) ... YES
Cc1cc(C)[n+](-c2ccc(Oc3ccccc3)c(S(=O)(=O)[O-])c2)[nH]1 ... YES
O=C(COC(=O)/C=C/c1cccc(Cl)c1)Nc1ccc(N2CCOCC2)cc1 ... NO
Cc1ccc(OC(=O)Nc2ccccc2)cc1 ... NO
Cc1ccccc1-c1nc(S(=O)(=O)c2ccccc2)c(NCCCN2CCOCC2)o1 ... YES
CC1CN(C(=O)NCc2ccccc2)c2cc(Cl)ccc2O1 (stereo not drawn) ... NO
O=C(Cc1ccccc1[N+](=O)[O-])NCCC1=CCCCC1 ... NO
CC1(C)C(C(=O)N2CCN(C(=O)c3ccccc3)CC2)C1(C)C ... YES
COc1ccc(-c2nc(-c3cccnc3)no2)cc1OC ... NO
Cc1ccc(S(=O)(=O)N2CCOCC2)cc1NC(=O)COC(=O)/C=C/c1ccc(F)cc1 ... NO
Cc1ccc(NC(=O)O/N=C/c2ccc(N(C)C)cc2)cc1 ... NO
CS(=O)(=O)Nc1ccc(C(=O)Nc2ccc3ccccc3c2)cc1 ... NO
O=C(Nc1cccc(-c2cscn2)c1)C1CCN(Cc2ccccn2)CC1 ... YES
Cc1ccc(NC(=O)NCc2cccnc2)cc1Cl ... YES
CCn1ccnc1CN(C)Cc1nc(-c2ccccc2)no1 ... YES
COc1ccc(Nc2ncnc3sccc23)c(OC)c1 ... NO
COCc1c(C(=O)OCC(=O)c2ccc[nH]2)oc2ccccc12 ... NO
COc1cccc(OCCNS(=O)(=O)c2cccc([N+](=O)[O-])c2)c1 ... YES

###

- measurement.setup: buffer; pH 7.4; 200.0 µM
Record 1 (yes) whenever solubility kinetic is at 8 µg/mL or higher; record 0 (no) when lower.

COc1ccc(C(=O)NCCN2CCCC2)cc1.Cl ... 1 (yes)
CCN(C(=O)COC(=O)CCNS(=O)(=O)c1ccccc1F)c1c(N)n(Cc2ccccc2)c(=O)[nH]c1=O ... 1 (yes)
CN(C(=O)c1c[nH]c(=O)cc1C(F)(F)F)c1ccc(Cl)cc1 ... 1 (yes)
Cc1[nH]ccc(=O)c1OCC(=O)O ... 1 (yes)
O=C(c1ccc(F)cc1Cl)N1CCN(CCc2ccccc2)CC1 ... 1 (yes)
COc1cccc(C(=O)Nc2cccc(NC(=O)c3ccccc3Cl)c2)c1 ... 0 (no)
O=C1OCC2=C1C(c1ccccc1)CC(=O)N2c1ccc(F)cc1 (centres undefined) ... 1 (yes)
Cc1noc(C)c1C(=O)N1CCN(c2ccccc2O)CC1 ... 1 (yes)
CN(C)C=Nc1ccc2nc3c(cc2c1)[nH]c1ccccc13 ... 1 (yes)
CCOC(=O)c1csc(-c2sccc2Br)n1 ... 1 (yes)
COc1ccc(Cl)cc1C(=O)NN=C1CCCC1 ... 1 (yes)
Cc1nc(Cl)sc1C(=O)Nc1ccccc1Cl ... 1 (yes)
O=C(COC(=O)c1ccc(Cl)cc1)NC(=O)NC1CCCC1 ... 0 (no)
CCC(=O)c1cn(CC(=O)Nc2ccccc2Cl)c2ccccc12 ... 0 (no)
Cc1ccc(N2C(=O)C(Cl)=C(N3CCCCCC3)C2=O)cc1 ... 1 (yes)
O=C(Nc1ccc(Cl)cn1)c1cccc(OCc2ccccc2)c1 ... 0 (no)
COc1cc(S(=O)(=O)N2CCCN(C)CC2)ccc1NC(C)=O ... 1 (yes)
COc1ccccc1/C=N/OC(=O)c1ccc(C)cc1 ... 0 (no)
C[N+](C)(C)CCOc1ccc([N+](=O)[O-])cc1.[Br-] ... 1 (yes)
O=C1N=C(N2CCOCC2)S/C1=C/c1cc2c(cc1[N+](=O)[O-])OCO2 ... 1 (yes)
Cn1c(=O)[nH]c(=O)c2c1nc1n2CCS1 ... 1 (yes)
CC(C)c1cccc(C(C)C)c1NC(=O)CN1CCCC1 ... 1 (yes)
CN(Cc1ccccc1)C(=O)COC(=O)CCC(=O)c1ccc(Cl)cc1 ... 1 (yes)
